B1: APBB1IP (parent)
chain: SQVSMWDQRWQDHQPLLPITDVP

variants of: B1; assay: protein stability index of a GFP-peptide fusion (GPS, HEK-293T) (PSI 1-6); higher = more stable; conditions: c terminus: native;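 also: lentivirally expressed fusions sorted by FACS into six bins by GFP to DsRed ratio, PSI derived from sequencing read proportions per bin multiplied by bin number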
Experimental Endpoint: protein stability index
// keep it numeric: no unit symbol after the value

[[record]]
sequence_variant = "H13M"
test_result = 1.99

[[record]]
sequence_variant = "S4C"
test_result = 1.95

[[record]]
sequence_variant = "Q14K"
test_result = 2.28


Data request: Return protein stability index for the following variant: `D7M`
Data returned: 1.44

Data request: State, in one line, measured protein stability index of `R9S`
Data returned: 2.4

Data request: Output protein stability index of `Q14E`
Data returned: 3.31

Data request: Please indicate protein stability index recorded for `M5F`
Data returned: 1.89

Data request: Report protein stability index for `Q2M`
Data returned: 3.18
